- TGT: RLM
- EXPERIMENT: Inhibition of poziotinib metabolism
- Type: in vitro ADME, rat
- DETAILS: M2
MEASURED_PROPERTY: Ki (µM)
Give bare numbers, in µM.

## Input What value of measured Ki is listed for COc1cc2ncnc(Nc3ccc(F)c(Cl)c3)c2cc1NC(=O)/C=C/CN1CCCCC1 ?
## Output 47.5

====

- TGT: HLM
- EXPERIMENT: Inhibition of poziotinib metabolism
- Format: in vitro ADME, human
- DETAILS: M2
MEASURED_PROPERTY: Ki (nM)
One number for each entry, in nM.

## Input Recall the recorded Ki for COc1cc2ncnc(Nc3ccc(F)c(Cl)c3)c2cc1NC(=O)/C=C/CN1CCCCC1 with HLM and state it.
## Output 170

Where do the numbers come from? From paper PMC8079061.
